ASSAY: chemical genetic growth profiling, strain panel (AID 1159580);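 note: tested at 20 µM; growth read once vehicle control cultures reached saturation at 30 °C; 1 = growth at the plate median or of vehicle wells; lower values mean less growth of the strain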
ASSAY_CONDITIONS: S. cerevisiae deletion strains, growth OD, locus YLR371W, strain rom2, active compounds read low
The whole screen tested about 5,500 compounds, of which about 2,000 (36%) were called active. About 18% were inconclusive and are not listed. This is one part of the list.
READOUT_TYPE: normalized growth
// print number alone

Consider the reported normalized growth for these molecules:
C=C(C)[C@H]1Cc2c(ccc3c2O[C@@H]2COc4cc(OC)c(OC)cc4[C@@H]2C3=O)O1 ... 1.02
Cc1c(NC(=O)c2cccnc2)c(=O)n(-c2ccccc2)n1C ... 0.998

Exam item: Any idea what its normalized growth is? The molecule is "O=c1c(O)c(-c2ccc(O)c(O)c2)oc2cc(O)ccc12"
Marked response: 0.882

Exam item: Any idea what its normalized growth is? The molecule is "CN1CCN(CC(=O)N2c3ccccc3C(=O)Nc3cccnc32)CC1"
Marked response: 1.03

Exam item: Any idea what its normalized growth is? The molecule is "COc1ccc(C(=O)c2ccc(O)cc2)c(O)c1O"
Marked response: 0.982

====

ASSAY: chemical genetic growth profiling, strain panel (AID 1159580);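 note: tested at 20 µM; growth read once vehicle control cultures reached saturation at 30 °C; 1 = growth at the plate median or of vehicle wells; lower values mean less growth of the strain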
ASSAY_CONDITIONS: S. cerevisiae deletion strains, growth OD, locus YNL183C, strain NPR1, active compounds read low
The whole screen tested about 5,500 compounds, of which about 2,000 (36%) were called active. Inconclusive results (about 18%) are left out. This is one part of the list. *1 amine or outer side, *2 acyl side, *3 side chain or, on linkers, in order; H or OH if unused. Where a SMILES comes first, the peptide text is derived from it. Bridges are numbered along the chain shown (N, C = ends). [ ]: non-standard residue; d: D form. The star is where a group is joined. ξ: configuration not given here. ΔAla(E,3-NHCONH2) = NC(=O)N/C=C(/N)C(=O)O; X2 = NC1=NCCC(C(N[*:1])C(=O)[*:2])N1; ξβ3hOrn = NCCCC(N)CC(=O)*; Dap = NC[CH](N)C(=O)O
In this section, each of the compounds is paired with its reported normalized growth.
// print number alone

CNS(=O)(=O)c1ccc(NC(=O)c2ccccc2C(=O)O)cc1 ... 0.933
O=c1c(-c2ccccc2)c(O)c2cccc3c4c(n1c23)CCCC4 ... 0.278
CC(=O)c1ccccc1C(=O)c1ccc(C(C)(C)C)cc1 ... 1
NC[C@H]1O[C@H](O[C@H]2C(O[C@@H]3O[C@H](CO)[C@@H](O)[C@H]3O)[C@@H](O)[C@H](N)C[C@@H]2N)[C@H](N)[C@@H](O)[C@@H]1O (stereo not given in full) ... 0.974
CC1=C(O)C(=O)C=C2C1=CC=C1[C@@]2(C)CC[C@@]2(C)[C@@H]3C[C@](C)(C(=O)O)CC[C@]3(C)CC[C@]12C ... 0.728
NC(N)=NC(N)=Nc1ccccc1 ... 0.923
CC[C@H]1OC(=O)[C@H](C)[C@@H](O[C@H]2C[C@@](C)(OC)[C@@H](O)[C@H](C)O2)[C@H](C)[C@@H](O[C@@H]2O[C@H](C)C[C@H](N(C)C)[C@H]2O)[C@](C)(O)C[C@@H](C)[C@@H]2N[C@@H](COCCOC)O[C@H]([C@H]2C)[C@]1(C)O ... 0.96
C[C@]12CCC(=O)C=C1CCC1C2[C@@H](O)C[C@@]2(C)C1CC[C@]2(O)C(=O)COC(=O)CCC(=O)O (stereo not given in full) ... 0.951

Exam item: Any idea what its normalized growth is? The compound is "Cc1ccc(N(CC2=NCCN2)c2cccc(O)c2)cc1"
Marked response: 0.99

Exam item: Any idea what its normalized growth is? The compound is "O=c1c(-c2ccccc2)c(O)c2cccc3c4ccccc4n1c23"
Marked response: 0.161

Exam item: Any idea what its normalized growth is? The compound is COc1ccc(C2CC(c3ccc(C)cc3C)=NN2C(C)=O)cc1 (stereo not given)
Marked response: 0.995

Exam item: Any idea what its normalized growth is? The compound is CC(=O)[C@@]12O[C@](C)(c3ccccc3)O[C@@H]1CC1C3CCC4=CC(=O)CC[C@]4(C)C3CC[C@@]12C (stereo not given in full)
Marked response: 0.987

Exam item: Any idea what its normalized growth is? The compound is "O=C(Nc1cc2c(s1)-c1cc(Cl)ccc1SC2)Oc1ccccc1"
Marked response: 0.941

Exam item: Any idea what its normalized growth is? The compound is CN1C(=O)CCS(=O)(=O)C1c1ccc(Cl)cc1 (stereo not given)
Marked response: 0.883

Exam item: Any idea what its normalized growth is? The compound is "CN(C)C(=N)N=C(N)N"
Marked response: 0.923

Exam item: Any idea what its normalized growth is? The compound is "Cc1c(NC(=O)c2cccnc2)c(=O)n(-c2ccccc2)n1C"
Marked response: 0.967

Exam item: Any idea what its normalized growth is? The compound is "CCOc1cccc(C(=O)c2ccc(O)c(O)c2O)c1"
Marked response: 0.98

Exam item: Any idea what its normalized growth is? The compound is NCCCC(N)CC(=O)NCC1NC(=O)C(CO)NC(=O)C(N)CNC(=O)C(C2CCN=C(N)N2)NC(=O)/C(=C\NC(N)=O)NC1=O (stereo not drawn) (H-[Dap]S[Dap](ξβ3hOrn)[ΔAla(E,3-NHCONH2)][X2]; lactam 1-C; configuration not given here)
Marked response: 0.988

Exam item: Any idea what its normalized growth is? The compound is COc1cc2c(cc1OC)[C@@]13CCN4CC5=CCOC6CC(=O)N2C1[C@H]6[C@H]5C[C@H]43 (stereo not given in full)
Marked response: 0.968

Exam item: Any idea what its normalized growth is? The compound is "CC[C@@H](CO)NC(=O)[C@@H]1C=C2c3cccc4[nH]cc(c34)C[C@H]2N(C)C1"
Marked response: 0.978
